Molecular target: alpha-1-adrenoceptor (rat cortex)
Assay: Competitive binding at alpha-1-adrenoceptor ([3H]prazosin)
Settings: read-out: dissociation constant at alpha-1-adrenoceptor
measured-parameter: pKi
Keep in mind that pKi stands for -log10 of concentration in molar terms.

query: Record request: pKi value, item COc1cccc(C(=O)CCCN2CCC(O)(c3ccc(Cl)cc3)CC2)c1 [Example 2(a)]
result: 5.97

====

Target: UniProt P31390
Sequence (P31390 whole entry): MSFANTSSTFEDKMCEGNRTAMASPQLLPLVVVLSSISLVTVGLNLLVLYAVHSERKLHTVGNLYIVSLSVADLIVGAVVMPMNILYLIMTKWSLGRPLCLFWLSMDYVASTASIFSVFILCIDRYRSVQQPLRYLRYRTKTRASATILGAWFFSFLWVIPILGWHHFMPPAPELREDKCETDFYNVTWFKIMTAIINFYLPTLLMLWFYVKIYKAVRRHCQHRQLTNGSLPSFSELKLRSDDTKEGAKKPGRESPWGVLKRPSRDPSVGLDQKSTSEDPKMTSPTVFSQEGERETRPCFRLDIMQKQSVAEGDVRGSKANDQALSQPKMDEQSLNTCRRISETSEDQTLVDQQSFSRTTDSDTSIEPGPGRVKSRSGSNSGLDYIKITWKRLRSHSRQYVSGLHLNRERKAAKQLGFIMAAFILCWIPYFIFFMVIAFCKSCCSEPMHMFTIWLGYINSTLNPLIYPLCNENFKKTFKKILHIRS
measured-parameter: Ki (nM)
# unit: nM | format: bare number

query: Reported Ki for COc1cccc(C(=O)CCCN2CCC(O)(c3ccc(Cl)cc3)CC2)c1 : what is it?
result: 1140

====

Target: sigma receptor (rat striatal tissue) (Rattus norvegicus, UniProt Q9R0C9)
Sequence (Q9R0C9 whole entry): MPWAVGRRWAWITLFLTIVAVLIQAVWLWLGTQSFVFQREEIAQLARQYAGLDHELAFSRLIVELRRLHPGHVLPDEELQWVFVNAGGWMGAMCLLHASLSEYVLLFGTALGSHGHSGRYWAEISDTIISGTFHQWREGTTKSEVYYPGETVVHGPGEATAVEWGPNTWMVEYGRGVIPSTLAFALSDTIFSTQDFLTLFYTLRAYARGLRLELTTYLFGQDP
measured-parameter: pKi
Quick note: pKi means taking -log10 of the concentration in moles per liter.

query: Param readout= pKi; system= sigma receptor (rat striatal tissue) (Rattus norvegicus, UniProt Q9R0C9); entry= COc1cccc(C(=O)CCCN2CCC(O)(c3ccc(Cl)cc3)CC2)c1 [Example 2(a)] ; returns value.
result: 6.70

====

Biological target: serotonin-1A receptor (rat frontal cortex tissue) (Rattus norvegicus)
Sequence (P19327 whole entry): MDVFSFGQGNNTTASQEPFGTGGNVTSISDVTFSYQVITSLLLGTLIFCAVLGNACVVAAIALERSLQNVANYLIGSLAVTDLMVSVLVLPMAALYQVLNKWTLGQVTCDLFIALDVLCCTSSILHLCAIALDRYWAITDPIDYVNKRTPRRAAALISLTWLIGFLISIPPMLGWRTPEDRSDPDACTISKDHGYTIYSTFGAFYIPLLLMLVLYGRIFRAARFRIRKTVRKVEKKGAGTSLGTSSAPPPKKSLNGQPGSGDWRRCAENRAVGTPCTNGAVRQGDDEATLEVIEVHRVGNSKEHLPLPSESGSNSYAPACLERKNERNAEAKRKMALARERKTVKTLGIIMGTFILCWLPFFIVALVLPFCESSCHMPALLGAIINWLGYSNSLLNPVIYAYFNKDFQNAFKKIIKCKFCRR
measured-parameter: pKi
Notebook: values listed as pKi are -log10 of the concentration (mol/L).

query: Identify the measured pKi of COc1cccc(C(=O)CCCN2CCC(O)(c3ccc(Cl)cc3)CC2)c1 for serotonin-1A receptor (rat frontal cortex tissue) (Rattus norvegicus).
result: 4.92

====

Target: alpha-2-adrenoceptor (cloned in Sf9 cells) (Homo sapiens, UniProt P08913)
Sequence (P08913 whole entry): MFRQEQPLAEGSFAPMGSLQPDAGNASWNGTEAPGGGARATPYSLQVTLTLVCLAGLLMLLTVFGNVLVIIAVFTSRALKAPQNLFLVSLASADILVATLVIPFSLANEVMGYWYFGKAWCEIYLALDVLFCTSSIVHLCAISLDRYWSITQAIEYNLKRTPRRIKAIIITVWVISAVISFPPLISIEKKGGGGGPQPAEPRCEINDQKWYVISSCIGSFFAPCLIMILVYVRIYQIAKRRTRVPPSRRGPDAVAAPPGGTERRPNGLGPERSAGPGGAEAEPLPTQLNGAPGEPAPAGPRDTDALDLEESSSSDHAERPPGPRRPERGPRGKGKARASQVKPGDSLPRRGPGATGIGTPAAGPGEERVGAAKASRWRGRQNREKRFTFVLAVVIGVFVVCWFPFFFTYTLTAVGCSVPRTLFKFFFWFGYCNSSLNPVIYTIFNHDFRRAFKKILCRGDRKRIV
Assay: Competitive binding at alpha-2-adrenoceptor ([3H]yohimbine)
Settings: read-out: dissociation constant at alpha-2-adrenoceptor
measured-parameter: pKi
On this scale, pKi is minus log10 of a concentration expressed in M (mol/L).

query: # pKi lookup, item COc1cccc(C(=O)CCCN2CCC(O)(c3ccc(Cl)cc3)CC2)c1
result: 5.02
